- Tested on: Anura
- assay-procedure: Displacement of (-)-[3H]alprenolol from adrenergic receptor purified from frog erythrocytes relative to isoproterenol
// reported Intrinsic activity for each item listed
Lab note: record just the number, no unit beside it.

Example entries and their recorded answers appear below.
CC(C)(Cc1ccccc1)NCC(O)c1ccc(O)c(NS(C)(=O)=O)c1 (centres undefined); 0.27
Oc1ccc(CCCNCCc2ccc(O)c(O)c2)cc1; 0.17
CC(C)(Cc1ccc(O)cc1)NCC(O)c1ccc(O)c(O)c1 (centres undefined); 1.2

Please find the next molecule below.
Could you tell me which Intrinsic activity is on file for CC(Cc1ccc2c(c1)OCO2)NCC(O)c1ccc(O)c(O)c1 (centres undefined) ? 1.1

---

- Tested on: Anura
- assay-procedure: Displacement of (-)-[3H]alprenolol from adrenergic receptor purified from frog erythrocytes
// reported pKb for each item listed
Lab note: record just the number, no unit beside it.

Example entries and their recorded answers appear below.
CC(Cc1ccc2c(c1)OCO2)NCC(O)c1ccc(O)c(O)c1 (centres undefined); 6.17
NC(CCO)C(O)c1ccccc1 (centres undefined); 4.29
CC(C)(Cc1ccc(O)cc1)NCC(O)c1ccc(O)c(O)c1 (centres undefined); 7.22
CC(N)C(O)c1ccc(O)c(O)c1 (centres undefined); 4.55
Oc1ccc(CCNCCc2ccc(O)c(O)c2)cc1; 4.33

Any idea what pKb came out for CC(COc1ccccc1)NC(C)C(O)c1ccc(O)cc1 (centres undefined) on Anura? 5.85

Any idea what pKb came out for CC(CCc1ccc(O)cc1)NCCc1ccc(O)c(O)c1 (centres undefined) on Anura? 4.62

Any idea what pKb came out for CNC(C)C(O)c1ccccc1 (centres undefined) on Anura? 5.04

Any idea what pKb came out for NCCc1ccccc1 on Anura? 3.7

Any idea what pKb came out for CNCC(O)c1cccc(O)c1 (centres undefined) on Anura? 4.28

Any idea what pKb came out for CC(NCCc1ccc(O)cc1)C(O)c1ccc(O)cc1 (centres undefined) on Anura? 5.06

Any idea what pKb came out for CCC(N)C(O)c1ccc(O)c(O)c1 (centres undefined) on Anura? 4.74

Any idea what pKb came out for CC(Cc1ccc(O)cc1)NCC(O)c1ccc(O)c(O)c1 (centres undefined) on Anura? 6.17

---

- System: Anura
- assay-procedure: Displacement of (-)-[3H]alprenolol from adrenergic receptor purified from frog erythrocytes relative to isoproterenol
// reported Intrinsic activity for each item listed
Lab note: record just the number, no unit beside it.

Example entries and their recorded answers appear below.
CC(CCc1ccc(O)cc1)NCCc1ccc(O)c(O)c1 (configuration not stated); 0.25
CC(N)C(O)c1ccc(O)c(O)c1 (configuration not stated); 0.87
CNC[C@H](O)c1ccc(O)c(O)c1; 0.75

Could you tell me which Intrinsic activity is on file for Oc1ccc(CCNCCc2ccc(O)c(O)c2)cc1 ? 0.25

Could you tell me which Intrinsic activity is on file for CC(Cc1ccc(O)cc1)NCC(O)c1ccc(O)c(O)c1 (configuration not stated) ? 1.1

Could you tell me which Intrinsic activity is on file for CCC(NC1CCCC1)C(O)c1ccc(O)c(O)c1 (configuration not stated) ? 0.64

Could you tell me which Intrinsic activity is on file for CCC(N)C(O)c1ccc(O)c(O)c1 (configuration not stated) ? 0.71

---

// reported pKb for each item listed
- Test system: Anura
- assay-procedure: Displacement of (-)-[3H]alprenolol from adrenergic receptor purified from frog erythrocytes
Lab note: record just the number, no unit beside it.

Example entries and their recorded answers appear below.
COc1cccc(C(O)C(C)NC(C)C)c1 (centres undefined); 5.11
NCC(O)c1cccc(Cl)c1 (centres undefined); 4.08
CCC(NC1CCCC1)C(O)c1ccc(O)c(O)c1 (centres undefined); 4.41
CNCC(O)c1cccc(NS(C)(=O)=O)c1 (centres undefined); 4.19
CC(COc1ccccc1)NC(C)C(O)c1ccc(O)c(CS(=O)(=O)N(C)C)c1 (centres undefined); 7.12
CC(CCc1ccccc1)NC(C)C(O)c1ccc(O)cc1 (centres undefined); 6.74
CNC[C@H](O)c1ccc(O)c(O)c1; 5.07
CC(N)C(O)c1cccc(O)c1 (centres undefined); 4.46

Could you tell me which pKb is on file for Oc1ccc(CCCNCCc2ccc(O)c(O)c2)cc1 ? 4.64

Could you tell me which pKb is on file for CCNCC(O)c1cccc(O)c1 (centres undefined) ? 4.66

Could you tell me which pKb is on file for CC(C)(Cc1ccccc1)NCC(O)c1ccc(O)c(NS(C)(=O)=O)c1 (centres undefined) ? 7.85
